experiment: Photostability of compound; type: physicochemical
Assay endpoint: Stability (%)
State just the number; it will be interpreted in %.

Item Nc1n[nH]c2nc(-c3ccc(NS(=O)(=O)c4ccccc4Cl)cc3)ccc12 has what recorded Stability?
46.1

Item Nc1n[nH]c2nc(-c3ccc(NS(=O)(=O)c4cccc(Cl)c4F)cc3)ccc12 has what recorded Stability?
87.2

Item Nc1n[nH]c2nc(-c3ccc(NS(=O)(=O)c4cccc(Cl)c4Cl)cc3)ccc12 has what recorded Stability?
10.1

Item Nc1n[nH]c2nc(-c3ccc(NS(=O)(=O)c4cc(Cl)ccc4F)cc3)ccc12 has what recorded Stability?
91.7

Item Nc1n[nH]c2nc(-c3ccc(NS(=O)(=O)c4c(F)cc(F)cc4F)cc3)ccc12 has what recorded Stability?
97.4

Item Nc1n[nH]c2nc(-c3ccc(NS(=O)(=O)c4cc(Cl)ccc4F)cc3)ncc12 has what recorded Stability?
99.3

Item Nc1n[nH]c2nc(-c3ccc(NS(=O)(=O)c4cc(Cl)c(F)cc4F)cc3)ncc12 has what recorded Stability?
98.6
